# EXPERIMENTAL_TARGET: Proto-oncogene tyrosine-protein kinase Src (Mus musculus, UniProt P05480)
# Sequence (P05480 2-535 limits assumed): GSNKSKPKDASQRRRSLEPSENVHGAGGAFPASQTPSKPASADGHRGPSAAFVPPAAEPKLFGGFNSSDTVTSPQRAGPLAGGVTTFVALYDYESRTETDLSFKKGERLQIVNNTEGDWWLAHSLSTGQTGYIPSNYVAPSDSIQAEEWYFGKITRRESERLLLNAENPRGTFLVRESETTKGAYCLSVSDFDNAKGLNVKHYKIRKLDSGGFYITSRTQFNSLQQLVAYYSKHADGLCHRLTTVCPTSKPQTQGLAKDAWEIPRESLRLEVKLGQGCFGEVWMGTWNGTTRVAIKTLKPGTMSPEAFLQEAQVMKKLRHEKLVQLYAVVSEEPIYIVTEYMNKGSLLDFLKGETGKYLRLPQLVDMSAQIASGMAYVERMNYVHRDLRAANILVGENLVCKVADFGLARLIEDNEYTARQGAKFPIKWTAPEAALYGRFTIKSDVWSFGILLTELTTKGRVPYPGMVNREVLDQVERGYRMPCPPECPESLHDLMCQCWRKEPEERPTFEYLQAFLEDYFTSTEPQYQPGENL
# ASSAY_REMARKS: Inhibition of Src in mouse BV2 cells assessed as suppression of LPS-induced NO release preincubated for 1 hr followed by LPS addition measured after 24 hrs by Griess assay
Rule: measured IC50 below 30 µM gets t; anything equal to or greater than 30 µM gets f.

Solved entries:
MOLECULE	CATEGORY
CCCCC(=O)c1c(O)cc(O)cc1O	t
CN(CCCC(=O)c1c(O)cc(O)cc1O)C1CCCCC1	f
COc1cc(OC)c(CN[C@@H](CC(=O)O)C(=O)O)c(OC)c1	t

[in] Problem: For the molecule CC(C)CC(=O)c1c(O)cc(O)cc1OCC(O)CNC(C)(C)C (stereo unspecified) , is IC50 under 30 µM?
[out] t

[in] In plain terms, does COc1cc(O)c(C(=O)CC(C)C)c(OC)c1 come in under 30 µM for IC50?
[out] f

[in] Hello, I'm reviewing records and need to know if IC50 of COc1ccc(C(=O)CC(C)C)c(OC[C@H](O)CNC(C)(C)C)c1 is below 30 µM. Could you check?
[out] t

[in] Lab note: confirm whether the reported IC50 for this molecule is below 30 µM, equality not counting. molecule: COc1ccc(C(=O)CC(C)C)c(OCC(O)CNC(C)(C)C)c1 (stereo unspecified)
[out] f

[in] I wonder whether COc1cc(OC)c(C(=O)CN2CCOCC2)c(OC)c1 has IC50 below 30 µM. Can you tell?
[out] f

[in] Report whether reported IC50 is lower than 30 µM (strictly) for COc1cc(/C=C/C(=O)CC(=O)/C=C/c2ccc(O)c(OC)c2)ccc1O
[out] t

[in] Item CC(C)CC(=O)c1c(O)cc(O)cc1OC[C@@H](O)CNC(C)(C)C : IC50 beneath 30 µM, strictly?
[out] t

###

# EXPERIMENTAL_TARGET: Proto-oncogene tyrosine-protein kinase Src (Mus musculus) (UniProt P05480)
# Sequence (P05480 2-535 limits assumed): as above
# ASSAY_REMARKS: Inhibition of Src signaling pathway in mouse BV2 cells assessed as suppression of LPS-induced NO release at […] preincubated for 1 hr followed by LPS addition measured after 24 hrs relative to control by Griess assay
# Assay type: cell-based
# CONDITION: BV-2
PROPERTY: inhibition

For orientation, consider the following solved cases.
COMPOUND	OBSERVED_RESULT
COc1cc(OC)c(CNC(C)C)c(OC)c1	< 50%
COc1cc(OC)c(CN[C@@H](Cc2ccccc2)C(=O)O)c(OC)c1	< 50%

Okay, here is my list. What is inhibition for each of these?
1. CC(C)CC(=O)c1c(O)cc(O)cc1OC[C@@H](O)CNC(C)C
2. O=C(CCCN1CCN(c2cccc(Cl)c2)CC1)c1c(O)cc(O)cc1O
3. COc1ccc(C(=O)CC(C)C)c(OCC(O)CNC(C)C)c1 (stereo unspecified)

[out]
1. < 50%
2. < 50%
3. < 50%

Sure, the documented inhibition for COc1cc(OC)c(CN[C@@H](Cc2cnc[nH]2)C(=O)O)c(OC)c1 is < 50%

Recorded values, source ChEMBL document CHEMBL3860061.
